- TEST_METHOD_NOTES: NCI Yeast Anticancer Drug Screen. Data for the rad50 strain (AID 155)
- STATED_CONDITIONS: S. cerevisiae rad50 strain growth inhibition; at 50.0 µM (retest, dose inferred, filed as 5.0)
Compounds without any hit were thinned out: in the full panel of roughly 79,000, 15% have a hit. Calls of active or inactive are those of the source. Rule as the data show it: active = growth inhibition above about 70%; inactive = the rest.
Outcome codes: T for active, F for inactive

>  <COMPOUND>
Cc1cc(C)c2[s+]snc2c1

>  <GROUP>
F

$$$$
>  <COMPOUND>
CC(C)S(=O)(=O)/C=C\S(=O)(=O)C(C)C

>  <GROUP>
T

$$$$
>  <COMPOUND>
CCOP(=O)(OCC)/C(C#N)=C/c1cccc(Oc2ccccc2)c1

>  <GROUP>
T

$$$$
>  <COMPOUND>
O=C(c1cc(=O)c2ccc(O)cc2o1)c1ccc(Cl)cc1Cl

>  <GROUP>
T

$$$$
>  <COMPOUND>
[N-]=[N+]=NC1(c2ccccc2)C(=O)Nc2ccccc2C1=O (configuration not stated)

>  <GROUP>
F

$$$$
>  <COMPOUND>
O=[N+]([O-])c1cc(Cl)ccc1S(=O)(=O)c1ccc(Cl)cc1[N+](=O)[O-]

>  <GROUP>
T

$$$$
>  <COMPOUND>
CCCCCCC=C(C(=O)OCC)C(=O)OCC

>  <GROUP>
F

$$$$
>  <COMPOUND>
NCCCSc1ccccc1

>  <GROUP>
F

$$$$
>  <COMPOUND>
CNCC(C)CNC

>  <GROUP>
F

$$$$
>  <COMPOUND>
Cc1ccc(S(=O)(=O)NC(=O)C2C(=O)CC3(CCCCC3)CC2=O)cc1

>  <GROUP>
F

$$$$
>  <COMPOUND>
COc1cc2oc3ccccc3c(=O)c2cc1CSc1ccccc1N

>  <GROUP>
F

$$$$
>  <COMPOUND>
COC(=O)C(Cl)(Cl)N=Nc1c(Cl)cc(Cl)c(C)c1Cl

>  <GROUP>
T

$$$$

Source of measurements: PubChem BioAssay (NCI)
